The reported numbers originate from patent US20200207782A1.

test protocol: Solution stability test (residual ratio and generation of active form in buffers of pH 2.0 to 9.0)
Type: physicochemical
Parameters: tested at 25 µM
condition summary: pH 7.4 buffer, 24 hours, 25° C.
Where a name gives a salt, the structure may show the parent alone.
readout label: Rate of generation of active form after 24 hours in buffer with pH of 7.4

// query For CC(=O)c1cc2c(OC(=O)NCCNCC(=O)O)c3ccsc3c(OC(=O)NCCNCC(=O)O)c2o1 [Example 1, dihydrochloride] , what is its reported Rate of generation of active form after 24 hours in buffer with pH of 7.4?
// result 92%

// query Please answer likewise for C[C@H]1COc2c1c(OC(=O)NCCCNCC(=O)O)c(OC(=O)NCCCNCC(=O)O)c1c3c(ccc21)C(C)(C)CCC3 [Example 13, dihydrochloride]
// result 5%

// query Please answer likewise for CN1CC[C@H](c2c(OC(=O)N(C)CCN)cc(O)c3c(=O)cc(-c4ccccc4Cl)oc23)[C@H](O)C1
// result 88%

// query Please answer likewise for CN1CC[C@H](c2c(O)cc(OC(=O)N(C)CCN)c3c(=O)cc(-c4ccccc4Cl)oc23)[C@H](O)C1 [Example 9, ditrifluoroacetate]
// result 23%

// query Please answer likewise for COC(=O)[C@H](CCNC(=O)Oc1c(C)c(CCCCCCCCCCOC(=O)OC(C)(C)C)c(OC(=O)NCC[C@H](NC(=O)OC(C)(C)C)C(=O)OC)c(OC)c1OC)NC(=O)OC(C)(C)C [Reference Example 11]
// result 91%

###

Assign Residual ratio to each entry below.
test protocol: Solution stability test (residual ratio and generation of active form in buffers of pH 2.0 to 9.0)
Assay type: physicochemical
condition summary: pH7.4 buffer, 25° C., 25 umol/L, 3 hr
Counter-ions that a name gives are not always drawn.
Give the number; % is assumed, so skip it.

// query For CC(=O)c1cc2c(OC(=O)NCCNCC(=O)O)c3ccsc3c(OC(=O)NCCNCC(=O)O)c2o1 [Example 1, dihydrochloride] , what is its reported Residual ratio?
// result 0.0

// query Please answer likewise for NCCCNC(=O)Oc1c(OC(=O)NCCCN)c(-c2ccccc2)c2c(c1-c1ccccc1)OCO2 [Example 6]
// result 65.8

// query Please answer likewise for CN1CC[C@H](c2c(OC(=O)N(C)CCN)cc(O)c3c(=O)cc(-c4ccccc4Cl)oc23)[C@H](O)C1 [Example 8]
// result 0.1

// query Please answer likewise for C[C@H]1COc2c1c(OC(=O)NCCNCC(=O)O)c(OC(=O)NCCNCC(=O)O)c1c3c(ccc21)C(C)(C)CCC3 [Example 12, dihydrochloride]
// result 9.8

// query Please answer likewise for Cc1cc(OC(=O)NCCNCC(=O)O)c2ccccc2c1OC(=O)NCCNCC(=O)O [Example 2, dihydrochloride]
// result 50.7

// query Please answer likewise for CC(=O)c1cc2c(O)c3c(O)cccc3c(OC(=O)NCCCN)c2o1 [Reference Example 9, hydrochloride]
// result 83.0

// query Please answer likewise for C[C@H]1COc2c1c(OC(=O)NCCCNCC(=O)O)c(OC(=O)NCCCNCC(=O)O)c1c3c(ccc21)C(C)(C)CCC3 [Example 13, dihydrochloride]
// result 61.8

###

test protocol: Solution stability test (residual ratio and generation of active form in buffers of pH 2.0 to 9.0)
Assay type: physicochemical
condition summary: pH7.4 buffer, 25° C., 25 umol/L, 24 hr
Structures can show the parent of a compound that is named as a salt.
Assign Residual ratio to each entry below.
Give the number; % is assumed, so skip it.

// query For C[C@H]1COc2c1c(OC(=O)NCCNCC(=O)O)c(OC(=O)NCCNCC(=O)O)c1c3c(ccc21)C(C)(C)CCC3 [Example 12, dihydrochloride] , what is its reported Residual ratio?
// result 0

// query Please answer likewise for CN1CC[C@H](c2c(OC(=O)N(C)CCN)cc(O)c3c(=O)cc(-c4ccccc4Cl)oc23)[C@H](O)C1
// result 0.5

// query Please answer likewise for CC(=O)c1cc2c(OC(=O)NCCNCC(=O)O)c3ccsc3c(OC(=O)NCCNCC(=O)O)c2o1 [Example 1, dihydrochloride]
// result 0.0

// query Please answer likewise for Cc1cc(OC(=O)NCCNCC(=O)O)c2ccccc2c1OC(=O)NCCNCC(=O)O [Example 2, dihydrochloride]
// result 0.0
